# pIC50 per entry
SYSTEM UNDER TEST: acetyl-CoA carboxylase 2 (ACC2) (Homo sapiens);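 also: ADP generated by ACC2 quantified via competitive time-resolved FRET between europium cryptate anti-ADP antibody and d2-tagged ADP, enzyme kept in linear range near 0.6 ng/µl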
Sequence (O00763 39-2458 limits assumed): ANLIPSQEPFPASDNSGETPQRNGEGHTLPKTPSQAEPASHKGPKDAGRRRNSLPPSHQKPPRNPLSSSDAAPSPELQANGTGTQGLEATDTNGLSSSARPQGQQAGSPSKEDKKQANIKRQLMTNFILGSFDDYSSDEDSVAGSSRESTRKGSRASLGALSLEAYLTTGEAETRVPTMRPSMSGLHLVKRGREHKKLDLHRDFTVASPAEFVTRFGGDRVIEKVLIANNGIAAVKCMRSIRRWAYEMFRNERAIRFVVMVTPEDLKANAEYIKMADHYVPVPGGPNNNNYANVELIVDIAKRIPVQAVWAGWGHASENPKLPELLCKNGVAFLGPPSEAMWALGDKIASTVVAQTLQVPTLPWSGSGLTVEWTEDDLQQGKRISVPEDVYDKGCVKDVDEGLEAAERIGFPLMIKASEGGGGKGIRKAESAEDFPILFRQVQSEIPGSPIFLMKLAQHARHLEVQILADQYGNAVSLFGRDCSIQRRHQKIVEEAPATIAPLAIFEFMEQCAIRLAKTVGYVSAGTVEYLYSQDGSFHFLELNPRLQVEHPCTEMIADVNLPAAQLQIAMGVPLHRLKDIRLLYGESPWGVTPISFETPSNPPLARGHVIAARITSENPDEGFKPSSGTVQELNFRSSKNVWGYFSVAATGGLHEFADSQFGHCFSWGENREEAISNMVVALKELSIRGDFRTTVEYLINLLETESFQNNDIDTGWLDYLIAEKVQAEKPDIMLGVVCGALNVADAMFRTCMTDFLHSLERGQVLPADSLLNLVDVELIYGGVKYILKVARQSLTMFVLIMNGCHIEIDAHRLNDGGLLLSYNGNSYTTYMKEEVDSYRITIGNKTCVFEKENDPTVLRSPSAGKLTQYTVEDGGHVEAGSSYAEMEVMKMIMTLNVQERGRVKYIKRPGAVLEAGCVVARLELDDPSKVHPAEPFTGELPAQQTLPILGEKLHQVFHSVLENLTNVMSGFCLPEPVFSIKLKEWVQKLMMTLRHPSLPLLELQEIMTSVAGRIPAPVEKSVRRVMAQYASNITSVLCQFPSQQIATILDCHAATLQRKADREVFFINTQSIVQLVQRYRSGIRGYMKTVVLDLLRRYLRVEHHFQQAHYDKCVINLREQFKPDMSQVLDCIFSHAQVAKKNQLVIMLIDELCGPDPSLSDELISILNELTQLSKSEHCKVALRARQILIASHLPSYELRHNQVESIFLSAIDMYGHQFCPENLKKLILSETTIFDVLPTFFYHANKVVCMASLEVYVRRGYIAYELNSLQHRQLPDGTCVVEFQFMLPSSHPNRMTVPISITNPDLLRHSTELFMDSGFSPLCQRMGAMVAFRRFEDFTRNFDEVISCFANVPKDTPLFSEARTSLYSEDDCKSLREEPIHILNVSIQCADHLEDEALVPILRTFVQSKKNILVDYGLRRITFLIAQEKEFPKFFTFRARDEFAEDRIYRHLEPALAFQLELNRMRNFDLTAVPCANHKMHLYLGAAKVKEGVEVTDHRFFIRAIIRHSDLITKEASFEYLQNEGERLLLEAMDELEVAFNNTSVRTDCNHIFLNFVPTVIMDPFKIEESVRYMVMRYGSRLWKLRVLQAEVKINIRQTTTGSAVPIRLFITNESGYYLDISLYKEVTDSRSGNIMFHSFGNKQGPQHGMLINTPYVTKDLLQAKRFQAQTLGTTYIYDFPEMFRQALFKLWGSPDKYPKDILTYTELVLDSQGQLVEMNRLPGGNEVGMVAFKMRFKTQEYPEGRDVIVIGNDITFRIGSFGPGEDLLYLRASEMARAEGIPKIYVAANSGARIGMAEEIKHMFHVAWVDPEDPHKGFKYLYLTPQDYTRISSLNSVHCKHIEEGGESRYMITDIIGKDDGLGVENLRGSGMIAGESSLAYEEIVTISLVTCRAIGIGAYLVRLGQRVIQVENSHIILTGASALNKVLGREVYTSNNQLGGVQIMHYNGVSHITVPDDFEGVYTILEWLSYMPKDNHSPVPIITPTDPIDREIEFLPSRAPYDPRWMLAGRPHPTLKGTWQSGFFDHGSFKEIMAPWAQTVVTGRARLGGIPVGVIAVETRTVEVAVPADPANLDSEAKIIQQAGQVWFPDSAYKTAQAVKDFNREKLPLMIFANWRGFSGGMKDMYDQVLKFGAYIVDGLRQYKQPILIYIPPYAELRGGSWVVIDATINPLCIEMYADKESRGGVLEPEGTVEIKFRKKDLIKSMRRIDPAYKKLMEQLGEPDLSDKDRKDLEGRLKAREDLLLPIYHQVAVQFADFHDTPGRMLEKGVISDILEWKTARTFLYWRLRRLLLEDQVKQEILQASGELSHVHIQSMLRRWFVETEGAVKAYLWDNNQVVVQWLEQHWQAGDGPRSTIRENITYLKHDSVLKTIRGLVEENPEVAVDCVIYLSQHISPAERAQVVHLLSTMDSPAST
Note on pIC50: it is the negative log10 of concentration, concentration in mol/L.

Previously resolved entries follow.
- TEST SMILES: "O=C1N[C@]2(CC[C@@H](C(F)(F)F)CC2)C(O)=C1c1cc(-c2ccc(F)c(F)c2)ccc1Cl"
  pIC50: 5.18
- TEST SMILES: "CO[C@H]1CC[C@]2(CC1)NC(=O)C(c1cc(-c3ccc(F)c(F)c3)ccc1C)=C2O"
  pIC50: 5.19

What is its pIC50 for acetyl-CoA carboxylase 2 (ACC2) (Homo sapiens)? Entry: Cc1ccc(-c2ccc(F)c(F)c2)c(C)c1C1=C(O)[C@]2(CC[C@H](C(F)(F)F)CC2)NC1=O
5.22

----------
# IC50 per entry
Tested on: MDA-MB-436
ASSAY REMARKS: Cell proliferation assay (CellTiter-Glo, 96 h), MDA-MB-436
Type: cell-based
CONDITION INFO: Homo sapiens, MDA-MB-436; 96-hour incubation
Please give the number followed by its unit.

- COMPOUND: "Cc1ccc(-c2ccc(Cl)cc2)cc1C1=C(O)C2(CCOCC2)NC1=O"
  IC50: "0.313 µM"
- COMPOUND: "Cc1ccc(-c2ccc(Cl)cc2)cc1C1=C(O)C2(CCC(OCC(F)(F)F)CC2)NC1=O (stereo not shown)"
  IC50: "0.07 µM"
- COMPOUND: "Cc1ccc(-c2ccc(Cl)cc2)c(C)c1C1=C(O)C2(CCOCC2)NC1=O"
  IC50: "0.14 µM"

Next up:
Endpoint output: IC50 of COCC1CCC2(CC1)NC(=O)C(c1cc(-c3ccc(Cl)cc3)ccc1C)=C2O (stereo not shown) . Value?
0.084 µM

----------
System: ECC1
ASSAY REMARKS: Cell proliferation assay (CellTiter-Glo, 96 h), ECC1
Format: cell-based
CONDITION INFO: Homo sapiens, ECC-1; 96-hour incubation
METRIC NAME: IC50

- TEST SMILES: "Cc1ccc(-c2ccc(Cl)cc2)cc1C1=C(O)C2(CCCCC2)NC1=O"
  EXPERIMENTAL RESULT: "257 nM"
- TEST SMILES: "Cc1ccc(-c2ccc(F)c(F)c2)cc1C1=C(O)[C@]2(CC[C@H](C(F)(F)F)CC2)NC1=O"
  EXPERIMENTAL RESULT: "137 nM"

Next up:
Endpoint output: IC50 of CO[C@H]1CC[C@]2(CC1)NC(=O)C(c1cc(-c3ccc(Cl)c(F)c3)ccc1C)=C2O . Value?
221 nM

----------
# IC50 per entry
SYSTEM UNDER TEST: human ACC1 (acetyl-coenzyme A carboxylase alpha transcript variant 1) (Homo sapiens, UniProt Q13085)
Construct: FLAG (C); made in house; host or cells: baculovirus-infected insect cells (Hi5)
ASSAY REMARKS: Human ACC1 enzyme assay, Assay B1 (ADP-Glo)
Format: biochemical
CONDITION INFO: Assay B1, ADP-Glo; read-out: ACC 1 (=B1) IC50
Give a bare numeral; the unit nM is implied.

Previously resolved entries follow.
- MOLECULE: "COCC1CCC2(CC1)OC(=O)C(c1c(C)ccc(-c3ccc(Cl)cc3)c1C)=C2O (centres unmarked) [2-17]"
  EXPERIMENTAL RESULT: 58
- MOLECULE: "COC1CCC2(CC1)OC(=O)C(c1cc(-c3ccccc3Cl)ccc1C)=C2O (centres unmarked) [2-7]"
  EXPERIMENTAL RESULT: 2710

Endpoint output: IC50 of COCCC1CCCC2(C1)OC(=O)C(c1cc(-c3ccc(Cl)cc3)ccc1C)=C2O (centres unmarked) [2-18] . Value?
276

Cc1cc(C)c(-c2ccc(Cl)cc2)cc1C1=C(O)C2(CCCOC2)OC1=O (centres unmarked) [2-46] ?
420

Cc1ccc(-c2ccc(Cl)cc2)cc1C1=C(O)C(C(C)(C)C)OC1=O (centres unmarked) [2-35] ?
1190
